Data provenance is PubChem BioAssay AID1508600.

Parameter z-score: see the listing below.
assay: Components of the Cytosolic LPS Sensing Pathway: Gene Identification via Genome-wide siRNA Screen; conditions: RAW264.7 macrophages, IL-1a HTRF, actives lie on both sides, screened at 100 nM (by protocol), cells primed 5 h with Pam3CSK4 first;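 note: robust z of the log signal after scaling to non-targeting control siRNA wells of the plate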
In all, about 53,000 sequences went through this assay and about 3,700 (7%) were called active. Many of the other results were omitted from the sample, so actives are more common in it than they were.
MEASURED_ENDPOINT: z-score

POLYMER_SEQUENCE | MEASURED_ENDPOINT | OBSERVED_MEASUREMENT
GGAAAUGAAGCUCAUGGAATT against Dcdc5 | z-score | -1.44 (inactive)
GGUGGAGAGAAAGAGAAAATT against Mcm8 | z-score | 0.767 (inactive)
GGUGGUCUGAUCGUAGACATT against Lrrc61 | z-score | 0.672 (inactive)
CCAAUCAACCCUCUAAGCATT against Nphp4 | z-score | 0.576 (inactive)
GGACAAUGAAGGAAUUGAUTT against Mdm4 | z-score | -0.579 (inactive)
CCAUUACUUCUGUGACCUCTT against Olfr32 | z-score | -0.289 (inactive)
GGAUGAAUUCAUUGAAGAATT against Btk | z-score | 0.321 (inactive)
GGCAUAGCCACUAAAAAAATT against Muc2 | z-score | -0.832 (inactive)
GGAGCAGGACGAGAAUCAATT against Cdkn1c | z-score | 3.62 (active)
GGCCUUCACUGAUGAAUGUTT against Pramel32 | z-score | -2.21 (active)
GCGAAGCGAAUCCUUUUUCTT against Fosl2 | z-score | 0.0982 (inactive)
CGCUAGCUUAUUUUCCGCCTT against Slc49a4 | z-score | 1.1 (inactive)
GCAUGCACUUAAGAUUCUATT against Lypd6b | z-score | 0.595 (inactive)
CCACAAAACUAAGACACCUTT against P2ry6 | z-score | 0.587 (inactive)
GCUCAUGCAUGGCUGUACATT against Gbp9 | z-score | 0.603 (inactive)
GGUUUAUGACAAACUGAAATT against Enpp4 | z-score | -0.0826 (inactive)
GGAGUGUUGGGAGCAGGAATT against Tnni1 | z-score | 2.71 (active)
GGUCCAGAGAAGGCAAGCUTT against Elf3 | z-score | 5.87 (active)
GGACAACAUUAUAGGAAAGTT against Neu3 | z-score | 2.36 (active)
GGUCUUCUAAGAAAUUUUGTT against Fmnl2 | z-score | 0.407 (inactive)
GGUUCUUUUUGCCACAGCCTT against Miga2 | z-score | -2.31 (active)
GGAAACCUGCUCAUAGUGGTT against Olfr1188 | z-score | 0.54 (inactive)
CGAGAUCAUCUCAAAUAUCTT against Man2a1 | z-score | -0.0408 (inactive)
GGAAACAUUGUCAUCAUGATT against Olfr1299 | z-score | -0.787 (inactive)
GGUUUUUGUGGAAAUGUGGTT against Smpd4 | z-score | -2.58 (active)
GUGUAUGCGCUGAUCCUAUTT against 1700020N01Rik | z-score | 0.181 (inactive)
GCCACGACCAUUCAGACUCTT against Lrrc42 | z-score | 1.27 (inactive)
CCUUUACACGUAAAAGAAGTT against Zfp445 | z-score | -0.194 (inactive)
GGAUCAAUGCACCUUCCAATT against Gpr85 | z-score | 1.61 (inactive)
GGCUCCAUCAAGAAAAGUUTT against Usp21 | z-score | 0.681 (inactive)
GGAUAUCACCUUCGAGAUATT against Ankrd7 | z-score | -0.0496 (inactive)
CCUCAUGCAGCUCAAUCUATT against Prelp | z-score | -2.41 (active)
GGAUUCGUAAACUUCAGAUTT against Igf2bp3 | z-score | 3.41 (active)
GGUACUGAGGUGAGCCUCUTT against Myocd | z-score | -2.45 (active)
GCGAGACUAUCAAAUCUAUTT against Gabra4 | z-score | 0.948 (inactive)
GGUCUGUGACGAGAAGCUATT against Rab4a | z-score | -1.43 (inactive)
CCCACUGAUGCUAUUUCUATT against Rad1 | z-score | -2.57 (active)
GGAGUAGCUGUUCUAAUUGTT against Scamp5 | z-score | -1.65 (inactive)
GCUAAUACGAUUUACUUUGTT against Cntn6 | z-score | 0.586 (inactive)
